METHOD NOTES: Lipophilicity, logD of the compound in 1-octanol and phosphate buffer by tandem mass spectrometer analysis
Assay type: physicochemical
ASSAY CONTEXT: 1-octanol/phosphate buffer
QUANTITY: logD
The reply should be a number, written without any unit.

State, in one line, measured logD of O=C(NCCS(=O)(=O)c1ccc(C(F)(F)F)cn1)c1ccc(B2C=CC=CN2)cc1 3.5

Item O=C(Cc1ccc(-c2ccccc2)cc1)Nc1cc(C2CC2)[nH]n1 : provide logD 4.4

Fill in reported logD for this entry: O=C(Cc1ccc(B2C=CC=CN2)cc1)Nc1cc(C2CC2)[nH]n1 3.9

----------
METHOD NOTES: in vitro
ASSAY CONTEXT: human, liver microsomes
Entries annotated with measured remaining at 0.5 h
Please state the figure in %; there is no need to write the unit.

COMPOUND: C#CC[C@@H](C(=O)N[C@H](/C=C/C(=O)OCC)C[C@@H]1CCNC1=O)n1cccc(NC(=O)c2cc(C)on2)c1=O [IMOCITRELVIR]
OBSERVED MEASUREMENT: 60

Determine from records and report remaining at 0.5 h for CCOC(=O)/C=C/[C@H](C[C@@H]1CCNC1=O)NC(=O)[C@H](Cc1ccc(F)c(F)c1)n1cccc(NC(=O)c2cc(C)on2)c1=O 19

All values here come from ChEMBL document CHEMBL5244278.
